B1: CD69 (parent)
chain: FVAENSSLHPESGQENDATSPHFS

Variants of: B1
Assay: protein stability index of a GFP-peptide fusion (GPS, HEK-293T) (PSI 1-6); higher = more stable;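 also: lentivirally expressed fusions sorted by FACS into six bins by GFP to DsRed ratio, PSI derived from sequencing read proportions per bin multiplied by bin number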
Settings: c terminus: a fixed tail appended
Given measured protein stability index, output True if it is greater than or equal to 3 and False if not.

>>> df
              residue_codes  category
0  FVAENSSLHPESGQRNDATSPHFS     False
1  FVAENSSLHPESGQENDATSPVFS      True
2  FVAENSSLHPEMGQENDATSPHFS     False
3  FVAENSKLHPESGQENDATSPHFS     False
4  FVAENSSLHPESPQENDATSPHFS      True

Numbers sourced from the supplement of paper PMC10567573.
